tested on: KRAS PDC multicell spheroid viability; assay: Anticancer human tumor 825966-067-R-J1-PDC patient-derived colon carcinoma cell line growth inhibition [KRAS2]; details: second compound 10 µM; first compound 0.01 µM; stronger effect = lower value;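 further: spheroids exposed to compounds for 7 days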
Lab note: compare viability, T/C with 90%, writing MET if less and NOT MET if equal or more.

CC(C)n1nc(-c2ccc3oc(N)nc3c2)c2c(N)ncnc21 + C=CC(=O)N1CCN(c2nc(=O)n(-c3c(C)ccnc3C(C)C)c3nc(-c4c(O)cccc4F)c(F)cc23)C(C)C1: NOT MET

Lab note: viability, T/C threshold 90%. Does this molecule come in strictly under it? CCN1CCN(Cc2ccc(Nc3ncc(F)c(-c4cc(F)c5nc(C)n(C(C)C)c5c4)n3)nc2)CC1 + C=CC(=O)N1CCN(c2nc(=O)n(-c3c(C)ccnc3C(C)C)c3nc(-c4c(O)cccc4F)c(F)cc23)C(C)C1
NOT MET

Lab note: viability, T/C threshold 90%. Does this molecule come in strictly under it? CCN1CCN(Cc2ccc(Nc3ncc(F)c(-c4cc(F)c5nc(C)n(C(C)C)c5c4)n3)nc2)CC1 + CC1OCC2(CCN(c3cnc(Sc4ccnc(N)c4Cl)c(N)n3)CC2)C1N
MET

Lab note: viability, T/C threshold 90%. Does this molecule come in strictly under it? Cn1ncnc1[C@H]1c2n[nH]c(=O)c3cc(F)cc(c23)N[C@@H]1c1ccc(F)cc1 + C=CC(=O)N1CCN(c2nc(=O)n(-c3c(C)ccnc3C(C)C)c3nc(-c4c(O)cccc4F)c(F)cc23)C(C)C1
NOT MET

Lab note: viability, T/C threshold 90%. Does this molecule come in strictly under it? CN(C)C/C=C/C(=O)Nc1cc2c(Nc3ccc(F)c(Cl)c3)ncnc2cc1O[C@H]1CCOC1 + COc1cc2nc(C)nc(NC(C)c3cc(N)cc(C(F)(F)F)c3)c2cc1OC1CCOC1
NOT MET

Lab note: viability, T/C threshold 90%. Does this molecule come in strictly under it? Cn1ncnc1[C@H]1c2n[nH]c(=O)c3cc(F)cc(c23)N[C@@H]1c1ccc(F)cc1 + CNCc1ccccc1-c1csc(C(C)Nc2nc(C)nc3cc(OC)c(OC)cc23)c1
MET

Lab note: viability, T/C threshold 90%. Does this molecule come in strictly under it? CC1COCCN1c1cc(-c2ccnn2C)c2ccnc(-c3ccn[nH]3)c2n1 (stereo unspecified) + CNCc1ccccc1-c1csc(C(C)Nc2nc(C)nc3cc(OC)c(OC)cc23)c1
MET

Lab note: viability, T/C threshold 90%. Does this molecule come in strictly under it? CC(=O)Nc1cccc(-n2c(=O)n(C3CC3)c(=O)c3c(Nc4ccc(I)cc4F)n(C)c(=O)c(C)c32)c1 + CC1OCC2(CCN(c3cnc(Sc4ccnc(N)c4Cl)c(N)n3)CC2)C1N
MET

Lab note: viability, T/C threshold 90%. Does this molecule come in strictly under it? CC1COCCN1c1cc(-c2ccnn2C)c2ccnc(-c3ccn[nH]3)c2n1 (stereo unspecified) + C=CC(=O)N1CCN(c2nc(=O)n(-c3c(C)ccnc3C(C)C)c3nc(-c4c(O)cccc4F)c(F)cc23)C(C)C1
NOT MET

Lab note: viability, T/C threshold 90%. Does this molecule come in strictly under it? CN(C)C/C=C/C(=O)Nc1cc2c(Nc3ccc(F)c(Cl)c3)ncnc2cc1O[C@H]1CCOC1 + C=CC(=O)N1CCN(c2nc(=O)n(-c3c(C)ccnc3C(C)C)c3nc(-c4c(O)cccc4F)c(F)cc23)C(C)C1
MET
